This listing pairs molecules with measured inhibition at 30 µM.
tested on: NCI-H1299; assay: Antiproliferative activity against human NCI-H1299 cells assessed as reduction in cell viability at 30 uM incubated for 48 hrs by MTT assay relative to control; assay type: functional
experimental-endpoint: inhibition at 30 µM (%)

{"columns": ["molecule", "experimental-endpoint", "unit-descriptor", "test-result"],
 "data": [
  ["Cc1ccc(CNc2ccc(Cl)cc2NCc2ccc(C)c(O)c2)cc1O", "inhibition at 30 µM", "%", 77.5],
  ["O=C(Nc1ccc(Cl)cc1NC(=O)c1cc(O)cc(Cl)c1)c1cc(O)cc(Cl)c1", "inhibition at 30 µM", "%", 61.3],
  ["Oc1cccc(CCc2cccc(F)c2CCc2cccc(O)c2)c1", "inhibition at 30 µM", "%", -22.7],
  ["O=C(Oc1cccc(O)c1)c1cccc(F)c1C(=O)Oc1cccc(O)c1", "inhibition at 30 µM", "%", 15.3],
  ["O=C(Oc1cccc(F)c1OC(=O)c1cccc(O)c1)c1cccc(O)c1", "inhibition at 30 µM", "%", 56.9],
  ["Cc1cc(O)cc(C(=O)Nc2ccc(Cl)cc2NC(=O)c2cc(C)cc(O)c2)c1", "inhibition at 30 µM", "%", 84.7],
  ["Oc1cc(Cl)cc(CNc2ccc(Cl)cc2NCc2cc(O)cc(Cl)c2)c1", "inhibition at 30 µM", "%", 47.6],
  ["O=C(Nc1cccc(F)c1NC(=O)c1cccc(O)c1)c1cccc(O)c1", "inhibition at 30 µM", "%", 33.4],
  ["Oc1cccc(COc2ccc(Cl)cc2OCc2cccc(O)c2)c1", "inhibition at 30 µM", "%", 14.3],
  ["Oc1cccc(OCc2cccc(F)c2COc2cccc(O)c2)c1", "inhibition at 30 µM", "%", -1.4],
  ["COc1ccc(C(=O)Nc2ccc(Cl)cc2NC(=O)c2ccc(OC)c(O)c2)cc1O", "inhibition at 30 µM", "%", 26],
  ["Cc1ccc(O)cc1C(=O)Nc1ccc(Cl)cc1NC(=O)c1cc(O)ccc1C", "inhibition at 30 µM", "%", 21],
  ["O=S(=O)(Cc1cccc(F)c1CS(=O)(=O)c1cccc(O)c1)c1cccc(O)c1", "inhibition at 30 µM", "%", 11.8],
  ["COc1ccc(CNc2ccc(Cl)cc2NCc2ccc(OC)c(O)c2)cc1O", "inhibition at 30 µM", "%", 22],
  ["Cc1cc(O)cc(CNc2ccc(Cl)cc2NCc2cc(C)cc(O)c2)c1", "inhibition at 30 µM", "%", 60.4],
  ["Oc1cccc(COc2cccc(F)c2OCc2cccc(O)c2)c1", "inhibition at 30 µM", "%", 10.6],
  ["[O-][S+](Cc1cccc(F)c1C[S+]([O-])c1cccc(O)c1)c1cccc(O)c1 (configuration not stated)", "inhibition at 30 µM", "%", 0.2],
  ["Oc1cccc(CNc2cccc(F)c2NCc2cccc(O)c2)c1", "inhibition at 30 µM", "%", 5],
  ["O=C(Nc1ccc(Cl)cc1NC(=O)c1ccc(Cl)c(O)c1)c1ccc(Cl)c(O)c1", "inhibition at 30 µM", "%", 19],
  ["Cc1ccc(C(=O)Nc2ccc(Cl)cc2NC(=O)c2ccc(C)c(O)c2)cc1O", "inhibition at 30 µM", "%", 55],
  ["O=C(Nc1ccc(Cl)cc1NC(=O)c1cccc(O)c1)c1cccc(O)c1", "inhibition at 30 µM", "%", 5.9],
  ["Oc1cccc(CNc2ccc(Cl)cc2NCc2cccc(O)c2)c1", "inhibition at 30 µM", "%", 56.6]
]}
